Test system: phosphorylation of pRb at the Ser780 site in JeKo-1 mantle cell lymphoma cells
Assay: CDK4 cellular assay: ELISA of pRb phosphorylation at Ser780 in JeKo-1 cells
Assay type: cell-based
Conditions: Homo sapiens; JeKo-1 cells, p-pRb Ser780 ELISA, non-normalized; read-out: Cellular ppRb inhibition IC50
Protocol: Cell-based assay measuring phosphorylation levels of pRb at the Ser780 site using an enzyme-linked immunosorbent assay (ELISA) method (Table 6). […] Plates were incubated overnight at 4° C. with rocking. […] After incubation, 50 μL 2 M sulfuric acid were added to plates to top the reaction, and absorbance was determined on a SpectraMax (Molecular Devices, Sunnydale, Calif.) within 15 minutes at 450 nm. […]
Listing: IC50 of selected molecules

Worked examples, 2 molecules total:
- molecule: "CN(C)C(=O)c1cc2cnc(Nc3ccc(N4CC5(CCCNCC5)OC4=O)cn3)nc2n1C1CCCC1 (stereo not drawn) [Example 103]"
  observedResult: "24 to 72 nM"
- molecule: "CN(C)C(=O)c1cc2cnc(Nc3ccc(C(=O)N4CC5(CNC5)C4)cn3)nc2n1C1CCCC1 [Example 41]"
  observedResult: "112 to 228 nM"

Next up:
Look up IC50: CN(C)C(=O)c1cc2cnc(Nc3ccc(N4CCC5(CCCN5)C4=O)cn3)nc2n1C1CCCOC1 (stereo not drawn) [Example 121]
184 to 489 nM

* * *

Biological target: CDK4/cyclin D1 (Homo sapiens (Human), UniProt P11802)
Sequence (P11802 whole entry): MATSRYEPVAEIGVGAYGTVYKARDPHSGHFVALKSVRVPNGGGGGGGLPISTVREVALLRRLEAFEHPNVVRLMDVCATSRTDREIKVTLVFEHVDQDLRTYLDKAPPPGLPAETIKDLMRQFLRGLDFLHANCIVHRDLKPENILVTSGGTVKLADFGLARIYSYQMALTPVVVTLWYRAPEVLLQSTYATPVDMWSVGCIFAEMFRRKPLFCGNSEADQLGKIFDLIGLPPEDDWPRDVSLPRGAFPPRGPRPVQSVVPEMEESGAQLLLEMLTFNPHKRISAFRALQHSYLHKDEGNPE
Sequence (P24385 whole entry partner): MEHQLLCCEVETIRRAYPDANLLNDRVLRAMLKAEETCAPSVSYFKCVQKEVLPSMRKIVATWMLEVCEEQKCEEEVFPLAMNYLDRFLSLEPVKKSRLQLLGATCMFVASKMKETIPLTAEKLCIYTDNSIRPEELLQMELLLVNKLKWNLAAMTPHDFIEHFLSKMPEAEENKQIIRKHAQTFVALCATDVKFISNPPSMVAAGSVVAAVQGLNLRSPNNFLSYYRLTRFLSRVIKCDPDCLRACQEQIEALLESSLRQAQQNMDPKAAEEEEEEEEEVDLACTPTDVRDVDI
Experiment: CDK4/cyclin D1 enzymatic activity assay (TR-FRET, phosphorylation of pRb at Ser780)
Assay type: biochemical
Conditions: 0.3 nM CDK4/cyclin D1, 150 nM biotin-pRb (773-924), 3 μM ATP, 60 min at 22° C.; read-out: Biochemical CDK4 enzyme IC50
Criterion: IC50 strictly under 20 nM. Met: yes (1). Not met: no (0).

Please indicate whether the reported IC50 of CN(C)C(=O)c1cc2cnc(Nc3ccc(N4CCN5CCCC5C4)cn3)nc2n1C1CCCC1 (stereo not shown) [Example 116] is strictly below 20 nM.
no (0)

Please indicate whether the reported IC50 of CNC(=O)c1cc2cnc(Nc3ccc(C(=O)N4CC5CCC(C4)N5)cn3)nc2n1C1CCCC1 [Example 23] is strictly below 20 nM.
no (0)

Please indicate whether the reported IC50 of CN(C)C(=O)c1cc2cnc(Nc3ccc(N4CC5CCC(CC4=O)N5)cn3)nc2n1C1CCCCC1 (stereo not shown) [Example 131] is strictly below 20 nM.
yes (1)

Please indicate whether the reported IC50 of CN1CC2(C)CN(C(=O)c3ccc(Nc4ncc5cc(C(=O)N(C)C)n(C6CCCC6)c5n4)nc3)CC(C)(C1)C2O (stereo not shown) [Example 39] is strictly below 20 nM.
no (0)

Please indicate whether the reported IC50 of CN(C)C(=O)c1cc2cnc(Nc3ccc(N4C[C@@H]5CC[C@H](CC4=O)N5S(C)(=O)=O)cn3)nc2n1C1CCCC1 [Example 137] is strictly below 20 nM.
no (0)

Please indicate whether the reported IC50 of CN(C)C(=O)c1cc2cnc(Nc3ccc(C(=O)N4CCC[C@@H]5CCN[C@@H]5C4)cn3)nc2n1C1CCCC1 [Example 25] is strictly below 20 nM.
yes (1)

Please indicate whether the reported IC50 of CN(C)C(=O)c1cc2cnc(Nc3ccc(N4C[C@@H]5CC[C@H](CC4=O)N5)cn3)nc2n1C1CCC1 [Example 135] is strictly below 20 nM.
yes (1)

* * *

Listing: pIC50 of selected compounds
Molecular target: CDK4/cyclin D1 (Homo sapiens (Human))
Assay: CDK4/cyclin D1 enzymatic activity assay (TR-FRET, phosphorylation of pRb at Ser780)
Format: biochemical
Conditions: 0.3 nM CDK4/cyclin D1, 150 nM biotin-pRb (773-924), 3 μM ATP, 60 min at 22° C.; read-out: Biochemical CDK4 enzyme IC50
Remember, pIC50 is on a log scale: it is -log10 of the molar concentration.

Worked examples, 3 compounds total:
- compound: "CC(=O)N1C2CCC1CN(C(=O)c1ccc(Nc3ncc4cc(C(=O)N(C)C)n(C5CCCCCC5)c4n3)nc1)C2"
  targetOrSystem: "CDK4/cyclin D1 (Homo sapiens (Human))"
  observedResult: 7.41
- compound: "CN(C)C(=O)c1cc2cnc(Nc3ccc(N4C[C@@H]5CC[C@H](CC4=O)N5)cn3)nc2n1-c1ccccc1"
  targetOrSystem: "CDK4/cyclin D1 (Homo sapiens (Human))"
  observedResult: 7.32
- compound: "CN(C)C(=O)c1cc2cnc(Nc3ccc(C(=O)N4CC5CCC(C4)N5CCO)cn3)nc2n1C1CCCC1"
  targetOrSystem: "CDK4/cyclin D1 (Homo sapiens (Human))"
  observedResult: 7.66

Next up:
Look up pIC50: CN(C)C(=O)c1cc2cnc(Nc3ccc(C(=O)N4CC5CC(C4)N(CC(F)(F)F)C5)cn3)nc2n1C1CCCC1 (stereo not shown)
7.31

* * *

Target: CDK4/cyclin D1 (Homo sapiens (Human))
Experiment: CDK4/cyclin D1 enzymatic activity assay (TR-FRET, phosphorylation of pRb at Ser780)
Assay type: biochemical
Details: 0.3 nM CDK4/cyclin D1, 150 nM biotin-pRb (773-924), 3 μM ATP, 60 min at 22° C.; read-out: Biochemical CDK4 enzyme IC50
pIC50: −log10 of the molar value.
Listing: pIC50 of selected compounds

Look up pIC50: CN(C)C(=O)c1cc2cnc(Nc3ccc(N4C(=O)CN5CCC4CC5)cn3)nc2n1C1CCCC1
7.55 to 7.82

Look up pIC50: CN(C)C(=O)c1cc2cnc(Nc3ccc(C(=O)N4CC5CCC(C4)C5O)cn3)nc2n1C1CCCC1 (stereo not drawn)
6.84 to 7.03

Look up pIC50: CN(C)C(=O)c1cc2cnc(Nc3ccc(C(=O)N4[C@@H]5CNC[C@H]4COC5)cn3)nc2n1C1CCCC1
7.28 to 7.44

Look up pIC50: CN(C)C(=O)c1cc2cnc(Nc3ccc(N4C[C@H]5CNC[C@H]5C4=O)cn3)nc2n1C1CCCC1
8.22 to 8.30

Look up pIC50: CN(C)C(=O)c1cc2cnc(Nc3ccc(N4C[C@H]5CC[C@@H](CC4=O)N5)cn3)nc2n1C1CCCCC1
> 8.30

Look up pIC50: CN(C)C(=O)c1cc2cnc(Nc3ccc(N4C[C@H]5CC[C@@H](CC4=O)N5C)cn3)nc2n1C1CCCC1
8.22 to 8.30

Look up pIC50: CN(C)C(=O)c1cc2cnc(Nc3ccc(N4CC5CNCC5C4=O)cn3)nc2n1C1CCCC1 (racemic)
> 8.30

Look up pIC50: CN(C)C(=O)c1cc2cnc(Nc3ccc(N4CC5CCC(C4)N5)nn3)nc2n1C1CCCCC1
7.51 to 8.00

Look up pIC50: CN(C)C(=O)c1cc2cnc(Nc3ccc(N4C[C@@H]5CNC[C@@H]5C4=O)cn3)nc2n1C1CCCC1
8.15 to 8.30

Look up pIC50: CN(C)C(=O)c1cc2cnc(Nc3ccc(C(=O)N4C[C@H]5CNC[C@@H](C4)C5O)cn3)nc2n1C1CCCCCC1 (stereo partly drawn)
8.30

Look up pIC50: CN(C)C(=O)c1cc2cnc(Nc3ccc(C(=O)N4CC5CNC(C5)C4)cn3)nc2n1C1CCCC1 (racemic)
> 8.40

Look up pIC50: CN(C)C(=O)c1cc2cnc(Nc3ccc(N4CC5COCC(CC4=O)N5)cn3)nc2n1C1CCCC1 (stereo not drawn)
7.49

* * *

Test system: phosphorylation of pRb at the Ser780 site in JeKo-1 mantle cell lymphoma cells
Assay: CDK4 cellular assay: ELISA of pRb phosphorylation at Ser780 in JeKo-1 cells
Type: cell-based
Settings: Homo sapiens, JeKo-1, JeKo-1 cells, p-pRb % inhibition adjusted with total pRb levels; read-out: Normalized cellular ppRb inhibition IC50
valueKind: IC50

Look up IC50: CN(C)C(=O)c1cc2cnc(Nc3ccc(N4C[C@@H]5CNC[C@@H]5C4=O)cn3)nc2n1C1CCCC1
9 to 21 nM

Look up IC50: CN(C)C(=O)c1cc2cnc(Nc3ccc(C(=O)N4C5CCC4CNC5)cn3)nc2n1C1CCCC1
86 to 817 nM

Look up IC50: [2H]C([2H])([2H])N1C2CCC1CN(C(=O)c1ccc(Nc3ncc4cc(C(=O)N(C)C)n(C5CCCC5)c4n3)nc1)C2
40 to 242 nM

* * *

Listing: IC50 of selected compounds
Test system: phosphorylation of pRb at the Ser780 site in JeKo-1 mantle cell lymphoma cells
Assay: CDK4 cellular assay: ELISA of pRb phosphorylation at Ser780 in JeKo-1 cells
Type: cell-based
Settings: Homo sapiens, JeKo-1, JeKo-1 cells, p-pRb % inhibition adjusted with total pRb levels; read-out: Normalized cellular ppRb inhibition IC50

- compound: "CN(C)C(=O)c1cc2cnc(Nc3ccc(C(=O)N4CC5CCC(C4)N5)cn3)nc2n1C1CCCC1"
  IC50: "26 to 90 nM"

Look up IC50: CN(C)C(=O)c1cc2cnc(Nc3ccc(N4CCC5(CCCN5)C4=O)cn3)nc2n1C1CCCC1 (stereo not drawn)
204 to 245 nM

Look up IC50: CN(C)C(=O)c1cc2cnc(Nc3ccc(C(=O)N4C[C@H]5C[C@@H]4CN5)cn3)nc2n1C1CCCC1
52 to 431 nM
